measured on: TNFα / TNFα receptor (TNFα R1/Fc) (Homo sapiens)
Construct: purchased R&D Systems
assay explanation: Inhibition of binding of TNFα to the TNFα receptor (plate ELISA competition)
details: Table 2; read-out: Activity (IC50, inhibition of TNFα binding to TNFα R1/Fc)
Numbered stars: 1 amine (or outer) side, 2 acyl side, 3 side chain; on linkers, the order of the positions; unused ones are H or OH. Bridge positions count the residues as written; N and C are the ends. Square brackets hold non-standard residues; d marks the D form. Peptide text beside a SMILES is read from it. Bip = N[C@@H](Cc1ccc(-c2ccccc2)cc1)C(=O)O; Phe(4-Br) = N[C@@H](Cc1ccc(Br)cc1)C(=O)O; Phe(4-NH2) = Nc1ccc(C[C@H](N)C(=O)O)cc1; d2Thi = N[C@H](Cc1cccs1)C(=O)O; Suc = O=C(CCC(=O)[*:2])[*:1]
reported endpoint: IC50

Use the examples below as a reference point.
{"compound": "O=C1CCC(=O)N[C@H](Cc2cccs2)C(=O)N[C@@H](Cc2ccc(Br)cc2)C(=O)N[C@H](Cc2ccccc2)C(=O)N[C@H](C(=O)O)Cc2ccc(cc2)N1 [Compound 85] ([d2Thi][Phe(4-Br)][dF][Phe(4-NH2)]-OH; linker N-4 via Suc)", "reported endpoint": "IC50", "result": "10 to 30 µM"}
{"compound": "O=C(O)CCNC(=O)[C@@H]1Cc2ccc(cc2)OCC(=O)N[C@@H](Cc2cccs2)C(=O)N[C@H](Cc2ccc(-c3ccccc3)cc2)C(=O)N[C@@H](Cc2ccccc2)C(=O)N1 [Compound 319]", "reported endpoint": "IC50", "result": "< 10 µM"}
{"compound": "O=C1N[C@@H](Cc2ccccc2)C(=O)N[C@@H](C(=O)O)Cc2ccc(cc2)NC(=O)[C@H](O)[C@@H](O)C(=O)N[C@@H](Cc2cccs2)C(=O)N[C@H]1Cc1ccc(-c2ccccc2)cc1 [Compound 280]", "reported endpoint": "IC50", "result": "> 100 µM"}
{"compound": "O=C(O)[C@@H]1Cc2ccc(cc2)NC(=O)[C@H](O)[C@@H](O)C(=O)N[C@H](Cc2cccs2)C(=O)N[C@@H](Cc2ccc(-c3ccc(F)cc3)cc2)C(=O)N[C@H](Cc2ccccc2)C(=O)N1 [Compound 334]", "reported endpoint": "IC50", "result": "30 to 100 µM"}
{"compound": "O=C1COc2ccc(cc2)C[C@@H](C(=O)N[C@@H](Cc2ccccc2)C(=O)O)NC(=O)[C@@H](CCc2ccc(C(F)(F)F)cc2)NC(=O)[C@H](Cc2ccccc2)NC(=O)[C@@H](Cc2ccc(C(F)(F)F)cc2)N1 [Compound 157]", "reported endpoint": "IC50", "result": "< 10 µM"}

Let me know recorded IC50 for C[C@H](NC(=O)[C@@H]1Cc2ccc(cc2)OCC(=O)N[C@@H](Cc2cccs2)C(=O)N[C@@H](Cc2ccc(-c3ccccc3)cc2)C(=O)N[C@@H](Cc2ccccc2)C(=O)N1)C(=O)O [Compound 326] , thanks.
< 10 µM

Consider the compound O=C(O)CNC(=O)[C@@H]1Cc2ccc(cc2)NC(=O)CCC(=O)N[C@H](Cc2cccs2)C(=O)N[C@@H](Cc2ccc(-c3ccccc3)cc2)C(=O)N[C@H](Cc2ccccc2)C(=O)N1 [Compound 19] ([d2Thi][Bip][dF][Phe(4-NH2)]G-OH; linker N-4 via Suc) and give its recorded IC50.
10 to 30 µM

----------
measured on: TNFα / TNFα receptor (TNFα R1/Fc) (Homo sapiens)
Construct: purchased R&D Systems
assay explanation: Inhibition of binding of TNFα to the TNFα receptor (plate ELISA competition)
details: Table 2; read-out: Activity (IC50, inhibition of TNFα binding to TNFα R1/Fc)
Description: The compounds listed in Table 2 below were assayed for ability to inhibit binding of TNFα to the TNFα receptor (TNFα R1/Fc). The assays were performed as described in the following procedure: TNFα (R&D Systems) was coated on high binding plate wells (Corning 96-well) at a single uniform concentration of 15 nM, 100 μL/well in PBS. […] The TMB reaction was stopped with the addition of 0.5N HCl and then the plate was read for absorbance at 450 nm.
pIC50: −log10 of the molar value. Numbered stars: 1 amine (or outer) side, 2 acyl side, 3 side chain; on linkers, the order of the positions; unused ones are H or OH. Bridge positions count the residues as written; N and C are the ends. Square brackets hold non-standard residues; d marks the D form. Peptide text beside a SMILES is read from it. Bip = N[C@@H](Cc1ccc(-c2ccccc2)cc1)C(=O)O; Phe(4-NH2) = Nc1ccc(C[C@H](N)C(=O)O)cc1; d2Thi = N[C@H](Cc1cccs1)C(=O)O; Suc = O=C(CCC(=O)[*:2])[*:1]; Ac3c = NC1(C(=O)O)CC1
reported endpoint: pIC50

{"compound": "O=C1COc2ccc(cc2)C[C@@H](C(=O)O)NC(=O)[C@@H](CCc2ccccc2)NC(=O)[C@H](Cc2ccc(C(F)(F)F)cc2)NC(=O)[C@@H](Cc2ccc(C(F)(F)F)cc2)N1", "measured on": "TNFα / TNFα receptor (TNFα R1/Fc) (Homo sapiens)", "reported endpoint": "pIC50", "result": "4.52 to 5.00"}

Look up and report measured pIC50 for this entry: O=C1CCC(=O)N[C@H](Cc2cccs2)C(=O)N[C@@H](Cc2ccc(-c3ccccc3)cc2)C(=O)N[C@H](Cc2ccccc2)C(=O)N[C@H](C(=O)NC2(C(=O)O)CC2)Cc2ccc(cc2)N1 [Compound 39] ([d2Thi][Bip][dF][Phe(4-NH2)][Ac3c]-OH; linker N-4 via Suc)
> 5.00

// fetch pIC50 given entry O=C(O)CCNC(=O)[C@@H]1Cc2ccc(cc2)OCC(=O)N[C@@H](Cc2cccs2)C(=O)N[C@@H](Cc2ccc(-c3ccccc3)cc2)C(=O)N[C@@H](Cc2ccccc2)C(=O)N1
> 5.00

Answer with reported pIC50 of O=C1COc2ccc(cc2)C[C@H](C(=O)O)NC(=O)[C@H](Cc2ccccc2F)NC(=O)[C@@H](Cc2ccc(-c3ccccc3)cc2)NC(=O)[C@H](Cc2ccncc2)N1
< 4.00

----------
In this section, each of the compounds is paired with its reported pIC50.
measured on: TNFα / TNFα receptor (TNFα R1/Fc) (Homo sapiens, UniProt P01375)
Construct: purchased R&D Systems
Sequence (P01375 77-233 limits assumed, species assumed): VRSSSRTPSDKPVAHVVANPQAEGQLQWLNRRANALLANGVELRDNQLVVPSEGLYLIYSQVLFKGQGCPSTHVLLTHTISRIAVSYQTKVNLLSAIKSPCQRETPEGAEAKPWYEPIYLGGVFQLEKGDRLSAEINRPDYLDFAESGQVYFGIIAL
assay explanation: Inhibition of binding of TNFα to the TNFα receptor (plate ELISA competition)
details: Activity (IC50, inhibition of TNFα binding to TNFα R1/Fc), Table 2
pIC50: −log10 of the molar value.

Solved cases below.
{"molecular string": "O=C1COc2ccc(cc2)C[C@@H](C(=O)N[C@H](CO)C(=O)O)NC(=O)[C@H](CCc2ccccc2)NC(=O)[C@@H](Cc2ccc(-c3ccccc3)cc2)NC(=O)[C@H](Cc2ccncc2)N1", "reported endpoint": "pIC50", "result": "> 5.00"}
{"molecular string": "O=C1COc2ccc(cc2)C[C@@H](C(=O)N[C@H](Cc2ccccc2)C(=O)O)NC(=O)[C@H](CCc2ccccc2)NC(=O)[C@@H](Cc2ccc(-c3ccccc3)cc2)NC(=O)[C@H](Cc2cccs2)N1", "reported endpoint": "pIC50", "result": "4.52 to 5.00"}
{"molecular string": "O=C1COc2ccc(cc2)C[C@@H](C(=O)N[C@@H](Cc2ccccc2)C(=O)O)NC(=O)[C@H](CCc2ccccc2)NC(=O)[C@@H](Cc2ccc(-c3ccccc3)cc2)NC(=O)[C@H](Cc2ccncc2)N1", "reported endpoint": "pIC50", "result": "> 5.00"}
{"molecular string": "CN(C(=O)[C@@H]1Cc2ccc(cc2)OCC(=O)N[C@@H](Cc2cccs2)C(=O)N[C@H](Cc2ccc(-c3ccccc3)cc2)C(=O)N[C@@H](CCc2ccccc2)C(=O)N1)[C@@H](Cc1ccccc1)C(=O)O", "reported endpoint": "pIC50", "result": "> 5.00"}
{"molecular string": "O=C1COc2ccc(cc2)C[C@@H](C(=O)N[C@H](CCc2ccccc2)C(=O)O)NC(=O)[C@H](CCc2ccccc2)NC(=O)[C@@H](Cc2ccc(-c3ccccc3)cc2)NC(=O)[C@H](Cc2c[nH]c3ccccc23)N1", "reported endpoint": "pIC50", "result": "> 5.00"}
{"molecular string": "O=C1COc2ccc(cc2)C[C@@H](C(=O)N2CCC[C@@H]2C(=O)O)NC(=O)[C@@H](CCc2ccccc2)NC(=O)[C@H](Cc2ccc(-c3ccccc3)cc2)NC(=O)[C@@H](Cc2cccs2)N1", "reported endpoint": "pIC50", "result": "4.52 to 5.00"}

Answer briefly: pIC50 recorded on TNFα / TNFα receptor (TNFα R1/Fc) (Homo sapiens, UniProt P01375) for O=C1COc2ccc(cc2)C[C@H](C(=O)N[C@H](Cc2ccccc2)C(=O)O)NC(=O)[C@@H](CCc2ccccc2)NC(=O)[C@H](Cc2ccc(-c3ccccc3)cc2)NC(=O)[C@@H](Cc2cccs2)N1
> 5.00

Tell me its pIC50 on TNFα / TNFα receptor (TNFα R1/Fc) (Homo sapiens, UniProt P01375): O=C1COc2ccc(cc2)C[C@@H](C(=O)NCc2nnn[nH]2)NC(=O)[C@H](CCc2ccccc2)NC(=O)[C@@H](Cc2ccc(-c3ccccc3)cc2)NC(=O)[C@H](Cc2c[nH]c3ccccc23)N1
> 5.00

// fetch pIC50 for O=C1COc2ccc(cc2)C[C@@H](C(=O)NCCO)NC(=O)[C@H](Cc2ccccc2)NC(=O)[C@H](Cc2ccc(-c3ccccc3)cc2)NC(=O)[C@H](Cc2cccs2)N1 ; system: TNFα / TNFα receptor (TNFα R1/Fc) (Homo sapiens, UniProt P01375)
4.52 to 5.00
